biological target: Protein smoothened (Mus musculus); experiment: Inhibition of Smo in mouse Ptch-deficient MEF cells assessed as inhibition of Shh-induced Gli-responsive betagalactosidase activity after 30 hrs by BetaGLo assay; format: cell-based
Sequence (P56726 whole entry): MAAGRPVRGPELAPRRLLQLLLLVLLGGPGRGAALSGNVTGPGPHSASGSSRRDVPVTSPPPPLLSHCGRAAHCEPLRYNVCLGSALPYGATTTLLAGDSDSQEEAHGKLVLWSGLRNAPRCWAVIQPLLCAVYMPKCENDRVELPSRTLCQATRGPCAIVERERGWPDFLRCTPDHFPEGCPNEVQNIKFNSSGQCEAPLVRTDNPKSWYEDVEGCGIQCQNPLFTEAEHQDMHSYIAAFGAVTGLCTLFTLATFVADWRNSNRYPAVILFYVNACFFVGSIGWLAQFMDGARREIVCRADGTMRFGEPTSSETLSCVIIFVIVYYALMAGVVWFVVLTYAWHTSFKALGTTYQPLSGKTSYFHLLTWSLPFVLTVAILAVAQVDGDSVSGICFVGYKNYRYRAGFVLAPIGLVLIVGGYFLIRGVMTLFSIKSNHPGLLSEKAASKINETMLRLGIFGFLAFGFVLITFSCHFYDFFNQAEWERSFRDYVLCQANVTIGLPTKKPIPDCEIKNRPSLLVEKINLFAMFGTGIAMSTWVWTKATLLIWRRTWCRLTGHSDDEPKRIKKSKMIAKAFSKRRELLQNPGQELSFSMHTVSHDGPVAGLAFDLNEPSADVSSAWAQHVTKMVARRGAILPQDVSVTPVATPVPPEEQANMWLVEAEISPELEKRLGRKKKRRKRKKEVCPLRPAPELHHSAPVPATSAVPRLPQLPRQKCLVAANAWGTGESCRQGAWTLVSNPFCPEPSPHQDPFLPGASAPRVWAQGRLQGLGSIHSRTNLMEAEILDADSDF
outcomeMeasure: pIC50
Quick note: pIC50 values are minus log10 of concentrations in mol/L.

Noted for O=C(C[C@@H]1C/C=C/CCC(=O)N[C@H](Cc2ccccc2)COC1=O)NCc1ccc(Cl)cc1 : its pIC50 reads 5.09

Noted for O=C(C[C@@H]1C/C=C/CCC(=O)N[C@H](c2ccc(Cl)cc2)COC1=O)NCc1ccc(Cl)cc1 : its pIC50 reads 5.70

###

Listed compounds paired with reported Imax
target: UniProt P56726; assay: Inhibition of Smo in mouse C3H10T1/2 cells assessed as inhibition of human Shh-induced cell differentiation after 48 hrs by alkaline phosphatase reporter assay relative to cyclopamine; assay type: cell-based; settings: C3H 10T1/2
Report the value in % with no unit label.

CN1C[C@@H](c2ccccc2)OC(=O)CC/C=C/C[C@@H](Cc2ccc(Cl)cc2)C1=O :: 104
O=C(C[C@@H]1C/C=C/CCC(=O)N[C@@H]2c3ccccc3C[C@@H]2OC1=O)NCc1ccc(Cl)cc1 :: 40
O=C(C[C@@H]1C/C=C/CCC(=O)N[C@H](c2ccc(Cl)cc2)COC1=O)NCc1ccc(Cl)cc1 :: 105

Noted for CC(C)N[C@H]1C/C=C/C[C@@H](CC(=O)NCc2ccc(Cl)cc2)C(=O)NC[C@@H](c2ccccc2)OC1=O : its Imax reads 41

Noted for CC(C)(C)OC(=O)C[C@@H]1C/C=C/CCC(=O)N[C@H](c2ccccc2)COC1=O : its Imax reads 60

Noted for O=C(C[C@@H]1C/C=C/CCC(=O)OC[C@@H]2CCCN2C1=O)NCc1ccc(Cl)cc1 : its Imax reads 77

Noted for C[C@H]1[C@@H](c2ccccc2)OC(=O)CC/C=C/C[C@@H](CC(=O)NCc2ccc(Cl)cc2)C(=O)N1C : its Imax reads 78

Noted for C[C@H]1C/C=C\C[C@@H](CC(=O)NCc2ccc(Cl)cc2)C(=O)OC[C@@H](c2ccccc2)NC1=O : its Imax reads 97
